Tested on: MDA-MB-231 breast
Test Description: NCI tumour cell line growth inhibition, 48 h
Property Measured: TGI

MDA-MB-231 breast / TGI / C[C@@](O)(/C=C/[C@H]1CC=CC(=O)O1)[C@@H](C[C@@H](O)\C=C/C=C\C=C\CO)OP(=O)(O)O : value?
138 µM

MDA-MB-231 breast / TGI / C[n+]1c(/C=C/c2ccc(/C=N/NC(=O)c3ccc(C(=O)N/N=C/c4ccc(/C=C/c5cn6ccccc6[n+]5C)cc4)cc3)cc2)cn2ccccc21 : value?
> 100 µM

MDA-MB-231 breast / TGI / COc1ccc2nccc(/C=C/c3ccnc4ccc(OC)cc34)c2c1 : value?
> 61.6 µM

Continuing:
MDA-MB-231 breast / TGI / O=C1CCCC[C@H]1C(O)CC1CC(=O)N(c2ccccc2)C(=O)C1 (stereo partly drawn) : value?
> 100 µM

MDA-MB-231 breast / TGI / CN(C)Cc1cc(C(=O)/C=C/c2ccc(F)cc2)cc(CN(C)C)c1O : value?
> 100 µM
